// values below are reported melting point

| MOLECULE | melting point |
| --- | --- |
| C[C@@H](N[C@@H](CC(=O)N1CCn2c(nnc2C(F)(F)F)C1)Cc1cc(F)c(F)cc1F)c1ccccc1 | 128 °C |
| COc1ccc(COC(=O)C2=C(C3CCCO3)OC[C@@H]3[C@H](NC(c4ccccc4)(c4ccccc4)c4ccccc4)C(=O)N23)cc1 (stereo not given in full) | 129 to 131 °C |
| O=C(CCBr)OCN1C(=O)NC(c2ccccc2)(c2ccccc2)C1=O | 133 to 134 °C |
| CC(C(=O)O)c1ccc2c(c1)Cc1cc(O)ccc1-2 (stereo not given) | 205 to 207 °C |
| C=CCc1cc2c(c(CC=C)c1O)CCC(=O)N2CC(O)CC (stereo not given) | 115 to 116 °C |
| Cc1nc[nH]c1C(=O)Nc1ccc(-n2nc(C3CC3)cc2C(F)(F)F)cc1 | 245 to 250 °C |
| COc1ccc(OC)c(C2=Nc3ccc(N4CCCC4)cc3C(=O)C2)c1 | 272 to 274 °C |
| O=C(NCc1ccccc1)c1ccc(Cl)nc1 | 113 to 114 °C |
| O=Cc1ccc(OCCN2Cc3ccccc3C2=O)cc1 | 134 to 135 °C |
| COC(=O)c1cnc(N)cn1 | 229 to 231 °C |
| CCCCCCCCCCCCCCCCCCS(=O)c1cc2ccccc2c(N)c1O (stereo not given) | 95 to 97 °C |
| [N-]=[N+]=Nc1cc(OCCO)ncn1 | 49 to 50 °C |
| Cc1sc(Cc2ccc(Br)cc2)c(C(=O)c2ccc(OS(=O)(=O)c3cnn(C)c3)c(C3CCCC3)c2)c1C | 55 to 60 °C |
| CCCCCn1c2ccccc2c2cc(C(=O)NN3CCCCC3)ccc21 | 158 to 159 °C |
| COc1ccc2ncnc(N3CCCc4ccccc43)c2c1 | 98 °C |
| O=C(NCCO)/C(=C/c1ccc(OC(F)(F)F)cc1)NC(=O)c1ccc(Oc2ccc(C(F)(F)F)cc2)cc1 | 84 to 86 °C |
| CCC(=O)SCC(C)C(=O)N1C(C(=O)O)CC2CCCCC21 (stereo not given) | 170 to 172 °C |
| COC(=O)c1nc(Cl)n2c1CN=C(c1ccccc1Cl)c1cc(Cl)ccc1-2 | 200 to 202 °C |
| CC(C)(C)C(=O)COc1ccc(Cl)cn1 | 68 to 69.5 °C |
| CCCc1c(O)cc(O)c(C(=O)CCc2ccc(O)cc2)c1O | 216 to 218 °C |
| O=C(Cc1ccc(-c2ccc(C(CC3CCOCC3)c3ccc(S(=O)(=O)C4CC4)cc3)[nH]2)nc1)N1CCOCC1 (stereo not given) | 202 to 203 °C |
| CCOC(=O)/C(C#N)=C(\N)C(CC)CC | 87 °C |
| CNc1nc(Nc2ccc(Cl)c(CNS(C)(=O)=O)c2)ncc1[N+](=O)[O-] | 250 °C |
| O=C1OC2(CC(c3ccccc3)=NO2)c2ccccc21 (stereo not given) | 103 to 106 °C |
| COc1cc2c(cc1OC)[C@@H]1CCCC[C@@H]1N=C2c1ccc(C(=O)OCC2CC2)cc1 (racemic) | 147 to 148 °C |
| CCCCCCCCCC(CC)SCCCCCCCCCCN1C(=O)CCC1=O (stereo not given) | 86 °C |
| COc1ccc(-c2cc[nH]c(=O)n2)cc1OC1CC2CCC1C2 (stereo not given) | 220 °C |
| Cc1nn(-c2ccc(C#N)c(Cl)c2)c(C)c1Cc1ccc(C(=O)N2CC(O)C2)cc1 | 115 to 117 °C |
| OCc1ccc2c(n1)COC(c1ccccc1)O2 (stereo not given) | 85 to 89 °C |
| CNc1ncccc1C(=O)Nc1ccc2c(c1)-c1c(c(C(N)=O)nn1-c1ccc3c(c1)OCO3)CC2 | 273 to 275 °C |
| CC1=C(C(=O)OC(CN2CCCCC2)c2ccccc2)C(c2cccc([N+](=O)[O-])c2)n2nccc2N1 (stereo not given) | 92 to 93 °C |
| CCOC(=O)CCCCC(=O)c1ccc2cc(OCCC(C)C)ccc2c1 | 65 to 66 °C |
| COc1ccc(CN2C(=O)C(O)(c3cc4c(C)noc4cc3O)c3ccccc32)cc1 (stereo not given) | 199 to 201 °C |
| Fc1ccc(-c2cc(Cl)ncn2)c(F)c1 | 65 to 69 °C |
| N=C(Nc1ccc2c(c1)C1CCCN1CC2)c1cccs1 (stereo not given) | 193 to 196 °C |
| Cc1nc2cccc(OC3CCN(C(=O)C(C)C)CC3)c2c(N)c1C(=O)O | 184 to 186 °C |
| O=Cc1sc(Cl)c(Cl)c1Cl | 81 to 82 °C |
| COc1ccc(-c2cccc3ccsc23)cc1 | 74 to 75 °C |
| CC1COc2c(C3CC3)c(F)c(N)c3c(=O)c(C(=O)O)cn1c23 (stereo not given) | > 280 °C |
| CC(Sc1cnn(C(C)(C)C)c(=O)c1Cl)c1ccc(C(C)(C)C)cc1 (single isomer, unassigned; (+)) | 102 to 104 °C |

====

// values below are reported melting point

| COMPOUND | melting point |
| --- | --- |
| CCc1ccc(Nc2c(-c3nnc(CC)o3)ccc(F)c2F)c(F)c1 | 82 to 83 °C |
| NNc1cc(-c2ccccc2)c2cc(Cl)ccc2n1 | 156 to 157 °C |
| Cc1cc2cc(CN3CCC(CCCC(=O)N(C)C)CC3)cnc2cc1NC(=O)c1ccc(-c2ccc(F)cc2)cc1 | 194 °C |
| O=C(Nc1ccc(N2CCCC2)nc1)c1cc2cc(C(F)(F)F)cnc2n1Cc1cccc(F)c1 | 234 to 236 °C |
| O=C(CCl)Nc1nc(C(Cl)(Cl)Cl)ns1 | 146 °C |
| CCCc1nc2c(C)cc(C)nc2n1Cc1ccc(-c2ccccc2-c2c(O)c(=O)c2=O)cc1 | 182 °C |
| CCOC(=O)c1ccc(NC(=O)C=Cc2ccc3ccccc3c2)cc1 | 173 to 175 °C |
| Cn1nc(C(F)(F)F)cc1Oc1cccc(Cl)n1 | 56 to 58 °C |
| C=C1CCC2C3CCC4CC(O)C(OC)CC4(C)C3CCC12C (stereo not given) | 131 to 133 °C |
| Cc1nc2ccccc2c(NCC(O)CO)c1Br (stereo not given) | 140 to 141 °C |

====

READOUT_LABEL: melting point

| MOLECULE | RECORDED_RESULT |
| --- | --- |
| CC1CC(c2cccc(Cl)c2)=NNC1=O (configuration not stated) | 150 to 151 °C |
| O=C(Nc1cc2ncc(CN3CCCC3)cc2cc1F)c1ccc(Br)cc1F | 149 to 151 °C |
| COC(=O)c1ccc(Cn2ncc3ccc(NC(=O)CC4CCCC4)cc32)c(OC)c1 | 195 to 198 °C |
| CCCCCCn1c(-c2ccc3c(c2)OCO3)nc2ccccc21 | 60.5 to 61.6 °C |
| CCCCC1CCC(c2ccc(Cc3ccc(N)cc3)cc2)(c2ccc(Cc3ccc(N)cc3)cc2)CC1 | 58.5 to 60.1 °C |
| COc1cc(OC)cc(-c2nc(-c3ccccn3)no2)c1 | 145 to 148 °C |
| Cc1ccc(-n2nc(C(F)(F)F)cc2-c2ccc(S(C)(=O)=O)cc2)cc1F | 158 to 160 °C |
| O=c1cc(-c2ccccc2)[nH]c2c(O)c(O)ccc12 | 270 to 274 °C |
| O=C1OC(Br)c2cc(Br)ccc21 (configuration not stated) | 100 °C |
| Cc1c(SCCCSCCc2ccccc2)ccnc1CSc1ccncc1 | 48 to 50 °C |
| N#Cc1ccc2[nH]c3c(ccc4c(C=O)c[nH]c43)c2c1 | > 250 °C |
| CCCCCCCCn1c(=O)c2c(N3CCN(C)CC3)cc(Cl)cc2n(Cc2ccccc2)c1=O | 78 to 80 °C |
| CC(C)(C)c1cc(-c2nn(Cc3cccs3)c3ncccc23)cc(C(C)(C)C)c1O | 138 to 141 °C |
| Cn1c(=O)cc(CCO)c2ccccc21 | 149 to 150 °C |
| Cc1nc(O)sc1-c1cn2cccnc2n1 | > 300 °C |
| COC(=O)c1c(C)[nH]c(C)c1C1=CC(=O)c2cccc(O)c2C1=O | 98 to 99 °C |
| CC(C)(C)OC(=O)[C@@H]1CCCN1C(=O)C=CC(F)(F)F | 119 to 120 °C |
| O=C(c1cccnc1)N1CCC(c2ccc(F)cc2)=N1 | 128 to 130 °C |
| O=c1nc(-c2ccccc2)cnn1-c1cc(Cl)cc(Cl)c1 | 160 to 161 °C |
| COc1ccc(-c2cc(=O)c3cc(OCCCCCN4CCC(O)CC4)ccc3o2)cc1 | 138 to 139 °C |
| O=C1N(Cc2ccc(Cl)s2)c2ccccc2C12COc1cc3c(cc12)OCO3 (configuration not stated) | 145 to 146 °C |
| CNN(NC)C(=O)Nc1cccc2c1C(=O)c1c-2n[nH]c1-c1cccs1 | 279 °C |
| COC(=O)c1[nH]c2ncccc2c1-c1ccc(N)cc1 | 236 °C |
| Cc1ccc2c(Cl)ccnc2c1N | 75 to 77 °C |
| CN1CCC(CO)(OCc2ccccc2F)CC1 | 104 to 108 °C |
| Nc1ccccc1C(=O)C=Cc1ccncc1 | 168 °C |
| CNC(=S)n1nc(Sc2ccc(C#N)cc2)nc1N | 200 to 203 °C |
| CC(C(=O)c1c(O)c2cccnc2n(-c2ccccc2)c1=O)c1ccccc1 (configuration not stated) | 140 to 151 °C |
| FC(F)(F)c1cc(Nc2nc3ccccc3o2)ccc1Br | 211 to 212 °C |
| O=C(O)c1c[nH]c(=S)n1C1CCc2cc(F)cc(F)c2C1 (configuration not stated) | 207 to 208 °C |
| CCCCCCCCCCCCCCCCCCN1C(=O)C2(CCCCC2)NC2(CCCCC2)C1=O | 39 to 40 °C |
| O=C1C2CC=CCN2C(=O)N1c1cc(O)c(Cl)cc1F (configuration not stated) | 195 to 197 °C |
| CC(=O)Nc1cc2c(cc1[N+](=O)[O-])OC(C)(C)[C@@H](O)[C@@H]2N (relative stereo) | 258 to 261 °C |
| Fc1ccc(Cn2c(NC3CCN(CCc4cn5ccsc5n4)CC3)nc3ccccc32)cc1 | 223 °C |
| COc1ccc(C2CCCC(=O)N2c2ccc(OC)cc2)cc1 (configuration not stated) | 108 to 109 °C |
| Cc1nc2nccc(-c3cccs3)n2n1 | 184 to 185 °C |
| CCOc1ccc(C(=O)C=Cc2ccc(SC)cc2)cc1 | 108 °C |
| CCCN(Cc1ccc(-c2ccccc2-c2nc(=O)o[nH]2)cc1)c1nn(C)cc1C(=O)OCC | 182 to 183 °C |
| CCOc1ccccc1-c1nc2c(C(N)=O)cccc2c(=O)[nH]1 | 252 to 254 °C |
| O=[N+]([O-])c1cc(C2=NOC(c3cc(C(F)(F)F)cc(C(F)(F)F)c3)(C(F)(F)F)C2)ccc1-n1cnnn1 (configuration not stated) | 173 to 175 °C |
| CNC(=O)NS(=O)(=O)c1ccccc1OC(Cl)=CCl | 225 to 226 °C |
| C=C(c1ccc(NC(=O)OC(C)(C)C)c(C)c1)C(F)(F)C(F)(F)C(F)(F)F | 50 to 53.5 °C |

Values were extracted from a melting point compilation (Tetko et al.; mined from patent text by program, amines drawn as free bases though some values may be those of a salt).
